# TARGET_OR_TEST_SYSTEM: CXCL6 (Homo sapiens)
# Sequence (P80162 38-114): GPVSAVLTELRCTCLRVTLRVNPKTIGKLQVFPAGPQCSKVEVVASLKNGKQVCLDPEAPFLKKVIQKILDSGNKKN
# EXPERIMENT_DESCRIPTION: cell-based
# DETAILS: value in parentheses restating the molar figure
Ends that are not written are not given here.
RECORDED_ENDPOINT: IC50 (µM)
Give your result in µM as a bare value.

Any idea what its IC50 is? The substance is EEDDYTAYAPLTCYFT-NH2 [HD2, EEDDYTAYAPLTCYFT]
140

* * *

# TARGET_OR_TEST_SYSTEM: CCL8 (Homo sapiens)
# Construct: purchased Peprotech
# Sequence (P80075 24-99): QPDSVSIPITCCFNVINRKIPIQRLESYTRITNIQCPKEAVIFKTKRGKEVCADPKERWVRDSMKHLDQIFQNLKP
# EXPERIMENT_DESCRIPTION: cell-based
# DETAILS: value in parentheses restating the molar figure
Ends that are not written are not given here.
RECORDED_ENDPOINT: pIC50
Note: pIC50 values are expressed as the negative base-10 logarithm of concentration in M.

Reported pIC50 for CCL8 (Homo sapiens), given EEDDYTAYAPLTCYFT-NH2 [HD2, EEDDYTAYAPLTCYFT] ?
7.82
